# system-name: T1, recombinant human DLL4 (Cat# 1506-D4/CF, R&D Systems) (human, UniProt Q9NR61 27-529)
# T1 construct: Bought protein; also called hDLL4; rHuman DLL4
# assay-name: ELISA, DLL4 coated, Fab 12.5 nM
readout-type: ELISA absorbance at 450 nm (A450)
// return numeric value only (unit: A450, not printed)

# example entries with known answers
>  <binder>
Fab VH5-51_IGHD5-18*01>3_IGHJ4*01 & V3-4_IGLJ1*01 (Fab, V domains shown, Fab made in E. coli: VH on CH1 with His6 and Flag tags (Plasmid A), VL on lambda CL (Plasmid E); also called wildtype; parent) VH: EVQLVQSGAEVKKPGESLKISCKGSGYSFTSYWIGWVRQMPGKGLEWMGIIYPGDSDTRYSPSFQGQVTISADKSISTAYLQWSSLKASDTAMYYCARRGYSYGYDYFDYWGQGTLVTVSS VL: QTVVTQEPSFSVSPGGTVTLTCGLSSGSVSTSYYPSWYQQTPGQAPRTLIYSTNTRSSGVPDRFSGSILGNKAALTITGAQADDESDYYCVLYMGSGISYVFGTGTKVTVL

>  <ELISA absorbance at 450 nm [A450]>
0.17

$$$$
>  <binder>
Fab VH5-51_IGHD5-18*01>3_IGHJ4*01 G100K/G104T G24T/S28R/G35V & V3-4_IGLJ1*01 V91L/S96P S52K (Fab, V domains shown, Fab made in E. coli: VH on CH1 with His6 and Flag tags (Plasmid A), VL on lambda CL (Plasmid E); also called H: KT TRV & L: LP S52K) VH: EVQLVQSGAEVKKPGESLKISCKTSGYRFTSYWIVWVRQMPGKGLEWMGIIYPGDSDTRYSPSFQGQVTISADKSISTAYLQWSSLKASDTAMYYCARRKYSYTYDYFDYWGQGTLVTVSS VL: QTVVTQEPSFSVSPGGTVTLTCGLSSGSVSTSYYPSWYQQTPGQAPRTLIYKTNTRSSGVPDRFSGSILGNKAALTITGAQADDESDYYCLLYMGPGISYVFGTGTKVTVL

>  <ELISA absorbance at 450 nm [A450]>
0.56

$$$$

Let us examine a further case.
// query ELISA absorbance at 450 nm value for entry Fab VH5-51_IGHD5-18*01>3_IGHJ4*01 G100K/G104T G24T/S28R/G35V & V3-4_IGLJ1*01 V91L/S96P S52V (Fab, V domains shown, Fab made in E. coli: VH on CH1 with His6 and Flag tags (Plasmid A), VL on lambda CL (Plasmid E); also called H: KT TRV & L: LP S52V) VH: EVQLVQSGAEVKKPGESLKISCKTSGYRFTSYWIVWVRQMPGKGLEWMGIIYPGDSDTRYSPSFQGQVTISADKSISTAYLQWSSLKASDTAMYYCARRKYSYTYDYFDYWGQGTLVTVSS VL: QTVVTQEPSFSVSPGGTVTLTCGLSSGSVSTSYYPSWYQQTPGQAPRTLIYVTNTRSSGVPDRFSGSILGNKAALTITGAQADDESDYYCLLYMGPGISYVFGTGTKVTVL 0.43
